Entries annotated with measured CC50
- procedureDetails: in vitro
- testParameters: African green monkey
Expressed in µM, but write only the number.

compound: O=C1C(O)=C(C(NCc2ccccc2)c2ccccn2)C(=O)c2ccccc21 (centres unmarked)
CC50 [µM]: 35.3

Entry CCCCCCCCCCCCCCCCNC(C1=C(O)C(=O)c2ccccc2C1=O)c1cc(Cl)cc(Cl)c1O (centres unmarked) , CC50 reported as 41.2

----------
- System: HIV-1
- procedureDetails: HIV-1 infectivity in HelaP4 cells (CPRG assay)
- Type: cell-based
- testParameters: at highest non-toxic concentration, 48 h
The reader will find reported Reduction of HIV-1 infectivity values listed item by item below.
Kindly write the number and append the unit.

Below, 4 compounds whose answers are already recorded.
compound: CCCCCCCCCCCCCCNC(C1=C(O)C(=O)c2ccccc2C1=O)c1ccccc1F (centres unmarked) [Compound 2b]
Reduction of HIV-1 infectivity: 75%
//
compound: CCCCCCCCCCCCNC(C1=C(O)C(=O)c2ccccc2C1=O)c1cc(Cl)cc(Cl)c1O (centres unmarked) [Compound 2i]
Reduction of HIV-1 infectivity: 65%
//
compound: CCCCCCCCCCCCCCNC(C1=C(O)C(=O)c2ccccc2C1=O)c1ccccc1Cl (centres unmarked) [Compound 2c]
Reduction of HIV-1 infectivity: 46%
//
compound: O=C1C(O)=C(C(NCc2ccccc2)c2cc(Br)cc(Br)c2O)C(=O)c2ccccc21 (centres unmarked) [Compound 2p]
Reduction of HIV-1 infectivity: 70%

The recorded Reduction of HIV-1 infectivity for O=C1C(O)=C(C(NCc2ccccc2)c2cc(Cl)cc(Cl)c2O)C(=O)c2ccccc21 (centres unmarked) [Compound 2l] is 48%

----------
pIC50 listing for selected compounds.
- targetUnderTest: HIV-1 RT-associated RNase H (Human immunodeficiency virus type 1 group M subtype B)
- procedureDetails: HIV-1 RT-associated RNase H inhibition assay
- Type: biochemical
- Parameters: 50 nM of HIV-1 RT
- testParameters: 50 nM HIV-1 RT, 15 min at 37 °C, triplicate; read-out: IC50, HIV-1 RT-associated RNase H activity
Recall that pIC50 is obtained by taking minus log10 of the concentration measured in molar.

Please review the entries below; each comes with its answer.
compound: CCCCCCCCCCCCNC(C1=C(O)C(=O)c2ccccc2C1=O)c1cc(Br)cc(Br)c1O (centres unmarked)
pIC50: 5.15
//
compound: O=C1C(O)=C(C(Nc2ccccn2)c2ccccc2O)C(=O)c2ccccc21 (centres unmarked)
pIC50: 4.68
//
compound: O=C1C(O)=C(C(NCc2ccccc2)c2cc(Br)cc(Br)c2O)C(=O)c2ccccc21 (centres unmarked)
pIC50: 4.71
//
compound: CCCCCCCCCCCCCCCCNC(C1=C(O)C(=O)c2ccccc2C1=O)c1cc(Br)cc(Br)c1O (centres unmarked)
pIC50: 4.49
//
compound: CCCCCCCCCCCCNC(C1=C(O)C(=O)c2ccccc2C1=O)c1cc(Cl)cc(Cl)c1O (centres unmarked)
pIC50: 5.33

The compound listed as CCCCCCCCCCCCCCNC(C1=C(O)C(=O)c2ccccc2C1=O)c1ccccc1Cl (centres unmarked) has a reported pIC50 of 5.14

The measured pIC50 associated with CCCCCCCCCCCCCCCCNC(C1=C(O)C(=O)c2ccccc2C1=O)c1cccc(Br)n1 (centres unmarked) reads 4.10

Documented pIC50 of CCCCCCCCCCCCCCCCNC(C1=C(O)C(=O)c2ccccc2C1=O)c1ccccn1 (centres unmarked) : 4.97

Documented pIC50 of O=C1C(O)=C(C(NCc2ccc(F)c(F)c2)c2ccccn2)C(=O)c2ccccc21 (centres unmarked) : 4.76

Per the records, this compound ( CCCCCCCCCCCCCCNC(C1=C(O)C(=O)c2ccccc2C1=O)c1ccccc1O (centres unmarked) ) has pIC50 equal to 5.07

compound CCCCCCCCCCCCCCNC(C1=C(O)C(=O)c2ccccc2C1=O)c1ccccc1 (centres unmarked) , pIC50 observed: 4.67

Value of pIC50 reported for the compound O=C1C(O)=C(C(NCc2ccccc2)c2cc(Cl)cc(Cl)c2O)C(=O)c2ccccc21 (centres unmarked) is 4.90

Entry CCCCCCCNC(C1=C(O)C(=O)c2ccccc2C1=O)c1ccccn1 (centres unmarked) ; pIC50 = 4.51

Reported pIC50 of CCCCCCCCCCCCCCNC(C1=C(O)C(=O)c2ccccc2C1=O)c1cc(Br)cc(Br)c1O (centres unmarked) : 3.98

compound CCCCCCCCCCCCCCNC(C1=C(O)C(=O)c2ccccc2C1=O)c1ccccc1F (centres unmarked) , pIC50 observed: 4.82

Reported pIC50 of CCCCCCCCCCCCCCNC(C1=C(O)C(=O)c2ccccc2C1=O)c1cc(Cl)cc(Cl)c1O (centres unmarked) : 4.36
